Origin of measurements: the supplement of paper PMC10567573

B1: ANKRD40 (parent)
chain: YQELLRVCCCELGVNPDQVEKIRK

variants of: B1; test: protein stability index of a GFP-peptide fusion (GPS, HEK-293T) (PSI 1-6); higher = more stable; details: c terminus: a fixed tail appended;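 further: lentivirally expressed fusions sorted by FACS into six bins by GFP to DsRed ratio, PSI derived from sequencing read proportions per bin multiplied by bin number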
Would you mind telling me the reported protein stability index of each entry?
Answer field: number only, no words.

May I ask what protein stability index has been recorded for Y1T ?
2.53

Then what about the variant L4K ?
2.94

Same question for N15T please.
3.74
